# Tested on: HeLa;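 further: Hoechst-stained nuclei counted by automated confocal imaging of four fields per well in 384-well plates, with the robust Z-score based on the per-plate DMSO median and robust SD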
# Assay Notes: nuclear count per well, robust Z-score vs DMSO; higher = more cells (less toxicity)
# Cond: 10 µM; 6 h
Where a name gives a salt, the structure may show the parent alone.
Binary classification by nuclear count per well, with 0.4 as an inclusive lower bound for YES; all other cases are NO.

Compound	Assigned Class
N=C(N)NCCCC[C@@H]1NC(=O)CCSSC[C@@H](C(N)=O)NC(=O)[C@@H]2CCCN2C(=O)[C@H](Cc2c[nH]c3ccccc23)NC(=O)[C@H](CC(=O)O)NC(=O)CNC1=O [Eptifibatide]	YES
Cc1cccc(CN2CCN(C(c3ccccc3)c3ccc(Cl)cc3)CC2)c1 (configuration not stated) [Meclizine Dihydrochloride]	NO
CC1(C)O[C@@H]2C[C@H]3[C@@H]4CCC5=CC(=O)CC[C@]5(C)[C@@]4(F)[C@@H](O)C[C@]3(C)[C@]2(C(=O)CCl)O1 [Halcinonide]	NO
CN1C(C(=O)Nc2ccccn2)=C(O)c2ccccc2S1(=O)=O	NO
C#Cc1cccc(Nc2ncnc3cc(OCCOC)c(OCCOC)cc23)c1	YES
Oc1cc(O)cc(/C=C/c2ccc(O)c(O)c2)c1	NO
